- Read-out: E-selectin (Homo sapiens)
- method: BSK_SAg_Eselectin: BioMAP Diversity Plus: SAg Assay for Eselectin Biomarker Activity (AID 2283091)
- experimental conditions: primary human HUVEC with PBMC; actives raise or lower the signal
- Protocol: BSK_SAg is a cell-based, multiplexed-readout assay that uses umbilical vein endothelium and peripheral blood mononuclear cells, a human vascular primary cell co-culture, with measurements taken at 24 hours after chemical dosing in a 96-well plate.BSK_SAg_Eselectin is an assay component measured in the BSK_SAg assay. It measures E-selectin antibody related to regulation of gene expression using ELISA technology.Data from the assay component BSK_SAg_Eselectin was analyzed into 1 assay endpoint. […]
Activity calls are given as the source filed them. How the source made its calls: active means hit-call score of the fitted dose curve at least 0.9, where 1 is the maximum; inactive means score below 0.9.
Labels: TRUE (active), FALSE (inactive)

molecule | group label
c1ccc(-c2ccccc2)cc1 | FALSE
COc1ccc(O)c(C(C)(C)C)c1 | FALSE
O=C(NC(=O)c1c(F)cccc1F)Nc1cc(Cl)c(OC(F)(F)C(F)F)c(Cl)c1 | FALSE
Nn1cnnc1 | FALSE
Cc1cc(O)ccc1Cl | FALSE
O=S(=O)(O)C(F)(F)C(F)(F)C(F)(F)C(F)(F)F | FALSE
O=C(NC(=O)c1cc(F)c(F)cc1Cl)Nc1cc(F)ccc1N1CCC(C(=O)O)CC1 | FALSE
C[C@]12CCC(=O)C=C1CC[C@@H]1[C@@H]2CC[C@@]2(C)[C@H]1CC[C@]2(C)O | FALSE
CN(C)CCO | FALSE
Clc1ccc(Cl)cc1 | FALSE
Cc1ccccc1CO[C@@H]1C[C@@]2(C(C)C)CC[C@]1(C)O2 | FALSE
ClC1=C(Cl)[C@]2(Cl)[C@@H]3[C@H]4C[C@H]([C@@H]5O[C@H]45)[C@@H]3[C@@]1(Cl)C2(Cl)Cl | TRUE
CCOP(=S)(OCC)SCSC(C)(C)C | TRUE
C=CC(=O)NCNC(=O)C=C | FALSE
O=NN(c1ccccc1)c1ccccc1 | FALSE
CCCCCCCCCC[N+](C)(C)CCCCCCCCCC | TRUE
Cc1cc(-c2ccc(N)c(C)c2)ccc1N | FALSE
CCCCCCOC(=O)c1ccccc1C(=O)OCCCCCC | TRUE
Cc1ccccc1O | FALSE
CCCCCCCCOC(=O)c1ccccc1C(=O)OCCCCCCCC | FALSE
Clc1ccc(C(Cl)(Cl)Cl)cc1 | FALSE
CC#Cc1cc(C)nc(Nc2ccccc2)n1 | FALSE
ClC1=C(Cl)[C@]2(Cl)[C@@H]3[C@@H](Cl)[C@H]4O[C@H]4[C@@H]3C1(Cl)C2(Cl)Cl | TRUE
Clc1ccc(C(c2ccccc2Cl)C(Cl)(Cl)Cl)cc1 (configuration not stated) | TRUE
Cc1cccc(C)c1N | FALSE
CCCN(CCC)N=O | FALSE
CCOC(=O)C(O)(c1ccc(Cl)cc1)c1ccc(Cl)cc1 | TRUE
CCOCCOC(C)=O | FALSE
O=C(O)C(F)(F)C(F)(F)C(F)(F)C(F)(F)C(F)(F)F | FALSE
C[C@]12CCC(=O)C=C1CC[C@@H]1[C@@H]2CC[C@]2(C)C(=O)CC[C@@H]12 | FALSE
O=S(=O)(O)C(F)(F)C(F)(F)C(F)(F)C(F)(F)C(F)(F)C(F)(F)F | FALSE
Nc1ccc(-c2ccc(N)cc2)cc1 | FALSE
Cc1ccc(O)c(C)c1 | FALSE
Oc1ccc(Cl)cc1Cl | FALSE
ClC1=C(Cl)[C@]2(Cl)[C@@H]3[C@@H]4C[C@@H]([C@H]5O[C@@H]45)[C@@H]3[C@@]1(Cl)C2(Cl)Cl | FALSE
C1CC2OC2CC1C1CO1 (configuration not stated) | FALSE
COS(=O)(=O)OC | FALSE
